assay-name: Tissue concentrations of capecitabine and its metabolites 2 h after oral capecitabine in CES2-modified mice
Assay type: in vivo, mouse
study-conditions: female Ces2^–/–V mice, oral capecitabine 500 mg/kg
# Lookup of reported Liver concentration ratio (metabolite/capecitabine) keyed by entry
Just the number, please, no unit after it.

stdin: Would you kindly share the measured Liver concentration ratio (metabolite/capecitabine) for "C[C@H]1O[C@@H](n2cc(F)c(=O)[nH]c2=O)[C@H](O)[C@@H]1O" ?
stdout: 0.44

Here is the next item to consider.
stdin: Need Liver concentration ratio (metabolite/capecitabine) of NCC(F)C(=O)O (stereo not shown) , thanks.
stdout: 18

====

assay-name: Plasma pharmacokinetics of vinorelbine and deacetylvinorelbine after oral vinorelbine in CES2-modified mice
Type: in vivo, mouse
study-conditions: mouse; male Ces2^–/–V mice; oral vinorelbine 10 mg/kg; plasma; read-out: Cmax
reported-endpoint: Cmax

stdin: Need Cmax, item CCC1=C[C@@H]2CN(C1)Cc1c([nH]c3ccccc13)[C@@](C(=O)OC)(c1cc3c(cc1OC)N(C)[C@H]1[C@@](O)(C(=O)OC)[C@H](OC(C)=O)[C@]4(CC)C=CCN5CC[C@]31[C@@H]54)C2 [Vinorelbine, reference compound]
stdout: 243 ng/mL

The reported measurements were obtained from paper PMC11845761.
